B1: 6NMW (parent)
chain: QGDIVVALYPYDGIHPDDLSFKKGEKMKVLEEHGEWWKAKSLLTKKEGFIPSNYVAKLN

- Variants of: B1
- protocol summary: folding stability dG (cDNA display proteolysis); higher = more stable
- details: PBS, room temperature
Exercise: state measured folding stability dG for each of the variants provided.
Just the number in kcal/mol, nothing appended.

Item under review: A7E . Reported folding stability dG?
0.11

Item under review: P51G . Reported folding stability dG?
0.115

Item under review: V29C . Reported folding stability dG?
1.16

Item under review: D3L . Reported folding stability dG?
4.43

Item under review: H33D . Reported folding stability dG?
2.75

Item under review: E25D . Reported folding stability dG?
2.36

Item under review: S20C . Reported folding stability dG?
2.77

Item under review: K45L . Reported folding stability dG?
4.49

Item under review: V55Y . Reported folding stability dG?
0.703

Item under review: I4V . Reported folding stability dG?
3.08

Item under review: D12R . Reported folding stability dG?
4.19
